Attribution: the OligoGym collection

Could you please report measured sensor-assay potency score (higher = more potent) for the items listed next?
# Tested System: FXR1
# Test Details: pooled miR-30 sensor sort-seq; sequence = guide strand
# Applied Conditions: shRNA
Numbers only.

INSERT INTO assay_data (biopolymer_sequence, tested_system, measured_value) VALUES
  ('TTCATTTCTGGACATAAGCATC', 'FXR1', -1.34);

Field: sensor-assay potency score (higher = more potent). Fill in for each record below.
1. TATACCTCTACTTCATCTCCTT
2. TTGAGCACAGAACTGATGGAGG
3. TGTCTCGATCATCTTCTCCTGC

Data returned:
[0.473, -0.647, 0.196]

Consider the following items and state reported sensor-assay potency score (higher = more potent) for each.
1. TTCAATCACATCTTTTGCCATT
2. TTGCTCTTGAATATACCTCTAC

Data returned:
1. -1.45
2. -0.669

Would you mind listing sensor-assay potency score (higher = more potent) for each of the following sequences?
1. TATTAATCTTTTCTTCTCCTGG
2. TATTTTATAACACAGTAGGTGT
3. TTATTTTCAAAAACAACTGTAA
4. TTTCTTGAATAACTTTGCCATT

Data returned:
1: -0.0994; 2: -0.648; 3: -0.406; 4: -1.55

###

# Tested System: SYTL1
# Test Details: pooled miR-30 sensor sort-seq; sequence = guide strand
# Applied Conditions: shRNA
Rule: MET for sensor-assay potency score (higher = more potent) not less than -0.5, NOT MET for anything less.

INSERT INTO results (biopolymer_sequence, class_label) VALUES
  ('TTCACCGCCGTCTTGCGCTTGC', 'NOT MET'),
  ('TTCCTGCGCATAGACGCTCGGA', 'NOT MET'),
  ('TTTCACAGCAGCCTCAGCCTCC', 'NOT MET'),
  ('TTGTACGTAAGTGTCCAGGGAT', 'MET'),
  ('TTATCCGGGAGGAGGTAGCTTT', 'NOT MET'),
  ('TTCTTCACCGCCGTCTTGCGCT', 'NOT MET');

Shift focus to the following entry.
Data request: Reported sensor-assay potency score (higher = more potent) at or above -0.5? `TTGACGTAGGGGTCCGAGCGGC`
Data returned: MET

###

# Tested System: VNN2
# Test Details: pooled miR-30 sensor sort-seq; sequence = guide strand
# Applied Conditions: shRNA
Property: sensor-assay potency score (higher = more potent)

INSERT INTO measurements (biopolymer_sequence, tested_system, measured_value) VALUES
  ('TTAAATGACAGCAAAGCTCCTT', 'VNN2', 0.199);

Return reported sensor-assay potency score (higher = more potent) values for all items listed beneath this line.
1. TCTTCTTTTTGTAACATTCTGT
2. TATACTACTGAAATAGCCCTTC
3. TTTCGGTAAGTAGCACTTCAGG
4. TTAGCAGGTAAGTTATTGCTGA
5. TATTGTATTGAAAGTAGCCATT
6. TTCTTTTTGTAACATTCTGTAG
7. TTGCACTTCAGCATTGTGCAGA
8. TTTCAAATCTTGTAGAAGCAGT

Data returned:
1. -0.103
2. 0.854
3. -1.26
4. -0.154
5. -1.45
6. -1.08
7. -0.233
8. -0.249

###

Provide the recorded sensor-assay potency score (higher = more potent) for the entries that follow.
# Tested System: ANG
# Test Details: pooled miR-30 sensor sort-seq; sequence = guide strand
# Applied Conditions: shRNA
Numbers only.

Consider the following illustrative entries.
INSERT INTO measurements (biopolymer_sequence, measured_value) VALUES
  ('TTGATGTCTTTGCAGGGTGAGG', -1.52),
  ('TGTGTACCTGGAGTTATCCTGA', 0.329),
  ('AAGACTTGCTTATTCTTAGGTT', 0.22),
  ('TTATCCTGAGCCAGGGTCGGTG', -1.46),
  ('TTGATGCTGCGCTTGTTGCCAT', -0.23),
  ('TTAGGTTTTCTCTGTGAGGGTT', 0.674),
  ('TTTCTCTGTGAGGGTTTCCATT', -0.964),
  ('TTGTTGCCATGAATAAATGTGT', -0.656),
  ('AATGTGTTGATGTCTTTGCAGG', -1.22),
  ('TGTACCTGGAGTTATCCTGAGC', -1.14);

Data request: Short answer please: sensor-assay potency score (higher = more potent), ANG, entry `TAGGTTTTCTCTGTGAGGGTTT`
Data returned: 0.619

###

# Tested System: SLC25A5
# Test Details: pooled miR-30 sensor sort-seq; sequence = guide strand
# Applied Conditions: shRNA
Assign sensor-assay potency score (higher = more potent) to each entry below.

INSERT INTO assay_data (biopolymer_sequence, tested_system, measured_value) VALUES
  ('TGCCTTTGTATTGCTTATCTGC', 'SLC25A5', -0.404),
  ('TTGCAGTGTCATAGATACCGAA', 'SLC25A5', -0.793),
  ('TCACGAGCAATCTTCCGCCAGC', 'SLC25A5', -0.904),
  ('TTCATCATACAAGACAAGCACA', 'SLC25A5', -1.02);

Could I get sensor-assay potency score (higher = more potent) for every one of these entries?
1. TTGCTTCCCATTTTCAACCAGT
2. AGATTTGTAGATCTTAACCAGG
3. TTTGTAGATCTTAACCAGGCAG
4. TCTCTTGTCCACACCACCCAGG

Data returned:
-0.278
-1.69
-0.343
-0.852

###

# Tested System: PLCB3
# Test Details: pooled miR-30 sensor sort-seq; sequence = guide strand
# Applied Conditions: shRNA
Property: sensor-assay potency score (higher = more potent)
Give bare numbers.

Some sequences with known sensor-assay potency score (higher = more potent) results, for comparison:
INSERT INTO assay_data (biopolymer_sequence, measured_value) VALUES
  ('TTTGATGAACTTACTCCCGCGC', 0.0652),
  ('TTCGATGTAGTTGACAAGCGTG', -0.63),
  ('TACTTTTCGATGAGCAGCCGGG', -0.993),
  ('ATGAAGTTCAAGAACACTGTGT', 0.354),
  ('TTCGTTGAGTCTCGGGTCGCGT', -0.421);

Shift focus to the following entry.
Data request: Look at this sequence and give its reported sensor-assay potency score (higher = more potent). `TAGTTGGAGGAGTCCACGCGGG`
Data returned: -1.09

###

# Tested System: C20orf112
# Test Details: pooled miR-30 sensor sort-seq; sequence = guide strand
# Applied Conditions: shRNA
Property: sensor-assay potency score (higher = more potent)
Answers are plain numbers.

Use these answered entries as a reference point.
INSERT INTO results (biopolymer_sequence, measured_value) VALUES
  ('TTGATGGAATCGTAGCTCCCAG', -1.02),
  ('TTTCTTGTCTCGCTCTCACAGG', -0.96),
  ('TTTCATGCTGAGGTCCGTGGGC', -0.763);

Provide the reported sensor-assay potency score (higher = more potent) of each entry below, same order.
1. ATTGTCCTCATGGTCATCGTGG
2. TTGTCTCGCTCTCACAGGCAGC
3. TTCATCTGCAGAGCGCAGCAGG
4. ATCGTCGTCATCATCTGCCGTC

Data returned:
-0.617
-1.65
-0.526
-0.187

###

# Tested System: ZFR2
# Test Details: pooled miR-30 sensor sort-seq; sequence = guide strand
# Applied Conditions: shRNA
Kindly supply the reported sensor-assay potency score (higher = more potent) values for the records listed here.

INSERT INTO results (biopolymer_sequence, measured_value) VALUES
  ('TGTCGCAGTAGTGAAGCTGGAG', -0.148);

# batch: return sensor-assay potency score (higher = more potent) for each of the 2 sequences below
1. TGCAGCTTGAAGACCTTCTGGT
2. TTAAGGTCGTTGAAACTGCACT

Data returned:
0.0557
-0.864

Below is a list of sequences. For each, state its recorded sensor-assay potency score (higher = more potent).
1. TAGTGAAGCTGGAGCTGCCTGG
2. TCCGTAGCTGTAACTGTCCTGG
3. TCTGTCTGGTCTCTCTCGCAGG

Data returned:
-0.835
-0.711
-0.775

###

# Tested System: CYP4A22
# Test Details: pooled miR-30 sensor sort-seq; sequence = guide strand
# Applied Conditions: shRNA
Please go through the items and note down their sensor-assay potency score (higher = more potent).
One number for each entry.

Example entries and their recorded answers appear below.
INSERT INTO results (biopolymer_sequence, measured_value) VALUES
  ('TATGCAGGTAGAGCTGAGCTGC', -1.03),
  ('TCCTTGTCTGACAAGATGCTCC', -1.35),
  ('AACACAAGTCGTGCCATGGGGA', -0.895),
  ('TGAGCTCTCTTCCAATGCCTGG', -1.4);

Record sensor-assay potency score (higher = more potent) for all entries; do not skip any.
1. TTGTAGCTCCTGGTCGTGTTGG
2. TTGGATCACTTGGTCTGTGTGC
3. TTTGGATTTCAACACAAGTCGT
4. TTGGGAATGTCTTCACCCGTTC
5. TGTCTGACAAGATGCTCCCATT

Data returned:
1: -0.703; 2: -0.603; 3: -1.17; 4: -0.893; 5: -1.67

Hello, I would appreciate it if you could give sensor-assay potency score (higher = more potent) for each entry below.
1. TCAGTTGGATCACTTGGTCTGT
2. ATTTCAACACAAGTCGTGCCAT
3. TAGAGGATCCAGGAGATCCCAC
4. TTAATGCACATGGTGGTGTAGG
5. TTCCTGAATCCGTTGTAGCTCC
6. AAACATGAACGTGTCCACCTCA

Data returned:
1. -0.279
2. -0.11
3. -1.33
4. -1.01
5. -0.657
6. -0.12
